The reported numbers originate from patent US5902812A.

target: PAI-1 (Homo sapiens, UniProt P05121); test: biochemical; conditions: 100 μM (third part of Table 1); read-out: Degree of inhibition in PAI chromogenic substrate assay
Sequence (P05121 24-402): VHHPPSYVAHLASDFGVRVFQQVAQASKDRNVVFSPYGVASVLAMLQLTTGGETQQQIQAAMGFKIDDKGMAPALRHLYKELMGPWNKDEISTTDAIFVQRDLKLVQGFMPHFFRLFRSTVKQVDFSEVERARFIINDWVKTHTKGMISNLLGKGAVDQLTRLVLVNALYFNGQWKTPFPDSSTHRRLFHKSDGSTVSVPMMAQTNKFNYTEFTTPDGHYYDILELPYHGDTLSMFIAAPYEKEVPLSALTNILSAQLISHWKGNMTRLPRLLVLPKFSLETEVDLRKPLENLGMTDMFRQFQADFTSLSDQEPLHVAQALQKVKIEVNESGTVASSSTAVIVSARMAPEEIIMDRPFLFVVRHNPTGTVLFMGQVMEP
Where a name gives a salt, the structure may show the parent alone.
Answer each item with its documented inhibition at 100 µM.
Dear colleague, please return just the value in %, with no unit written.

Would you mind telling me what inhibition at 100 µM value was observed for CN(C)CCOCc1ccc(/C=c2\[nH]c(=O)/c(=C/c3ccccc3Br)[nH]c2=O)cc1 [Compound 5070.HCl] ?
40

Fill in: inhibition at 100 µM of COc1ccc(/C=c2\[nH]c(=O)/c(=C/c3ccc(OCCCN(C)C)cc3)[nH]c2=O)cc1 is ___
10

What value of inhibition at 100 µM has been reported for the following molecule? CN(C)CCCOc1ccc(/C=c2\[nH]c(=O)/c(=C/c3ccc(C(F)(F)F)cc3)[nH]c2=O)cc1
68

----------
target: PAI-1 (Homo sapiens, UniProt P05121); test: biochemical; details: 50 μM
reported endpoint: Degree of inhibition in PAI chromogenic substrate assay

// lookup Degree of inhibition in PAI chromogenic substrate assay | system=PAI-1 (Homo sapiens, UniProt P05121) | key= CN(C)CCOc1ccc(/C=c2\[nH]c(=O)/c(=C/c3ccccc3)[nH]c2=O)cc1 [Compound 1908]
69%

Degree of inhibition in PAI chromogenic substrate assay of CN(C)CCOc1ccc(/C=c2\[nH]c(=O)/c(=C/c3ccccc3)[nH]c2=O)c(OCCN(C)C)c1 [Compound 1984] on PAI-1 (Homo sapiens, UniProt P05121)?
0%

Degree of inhibition in PAI chromogenic substrate assay of CN(C)CCOc1ccc(/C=c2\[nH]c(=O)/c(=C/c3ccccc3)[nH]c2=O)cc1 [Compound 1954] on PAI-1 (Homo sapiens, UniProt P05121)?
43%

Write down the reported Degree of inhibition in PAI chromogenic substrate assay of CN(C)CCOc1ccc(/C=c2\[nH]c(=O)/c(=C/c3ccccc3)[nH]c2=O)c(Cl)c1 , test system: PAI-1 (Homo sapiens, UniProt P05121).
23%

Item CN(C)CCCN(CCCN(C)C)Cc1ccc(/C=c2\[nH]c(=O)/c(=C/c3ccccc3)[nH]c2=O)cc1 with PAI-1 (Homo sapiens, UniProt P05121) - Degree of inhibition in PAI chromogenic substrate assay?
41%

Checklist item: Degree of inhibition in PAI chromogenic substrate assay tested on PAI-1 (Homo sapiens, UniProt P05121), entry CN(C)CCOc1ccc(/C=c2\[nH]c(=O)/c(=C/c3ccccc3)[nH]c2=O)c(OCCN(C)C)c1 [Compound 1969] , value?
20%

Recorded Degree of inhibition in PAI chromogenic substrate assay for CN(C)CCOc1ccc(/C=c2\[nH]c(=O)/c(=C/c3ccccc3)[nH]c2=O)cc1OCCN(C)C [Compound 1949] with PAI-1 (Homo sapiens, UniProt P05121), please?
1%

Checklist item: Degree of inhibition in PAI chromogenic substrate assay tested on PAI-1 (Homo sapiens, UniProt P05121), entry CN(C)CCOc1ccc(/C=c2\[nH]c(=O)/c(=C/c3c(Cl)cccc3Cl)[nH]c2=O)cc1 , value?
41%

Notebook entry, PAI-1 (Homo sapiens, UniProt P05121) assay: Degree of inhibition in PAI chromogenic substrate assay of CN(C)CCOc1ccc(/C=c2\[nH]c(=O)/c(=C/c3ccccc3)[nH]c2=O)cc1OCCN(C)C [Compound 1978] = ?
41%

Reported Degree of inhibition in PAI chromogenic substrate assay for PAI-1 (Homo sapiens, UniProt P05121), given CN(C)CCOc1ccc(/C=c2\[nH]c(=O)/c(=C/c3ccccc3)[nH]c2=O)c(Cl)c1.Cl ?
64%

Find Degree of inhibition in PAI chromogenic substrate assay (PAI-1 (Homo sapiens, UniProt P05121)) for the entry CN(C)CCOc1ccc(/C=c2\[nH]c(=O)/c(=C/c3ccccc3)[nH]c2=O)cc1 [Compound 1924]
38%

Any idea what Degree of inhibition in PAI chromogenic substrate assay came out for CN(C)CCOc1ccc(/C=c2\[nH]c(=O)/c(=C/c3ccccc3)[nH]c2=O)cc1 [Compound 1956] on PAI-1 (Homo sapiens, UniProt P05121)?
69%

Given the entry CN(C)CCOc1ccccc1/C=c1\[nH]c(=O)/c(=C/c2ccccc2)[nH]c1=O , what Degree of inhibition in PAI chromogenic substrate assay was observed with PAI-1 (Homo sapiens, UniProt P05121)?
1%
